// values below are reported pIC50
Organism: Homo sapiens
ASSAY COMMENT: Compound was evaluated for the inhibition of U-46,619-induced human platelet aggregation (Antiaggregatory activity)
Format: functional
Reminder that pIC50 means the negative base-10 logarithm of the concentration expressed in mol/L.

INSERT INTO measurements (compound, result_value) VALUES
  ('COc1cc(CC2c3cc(O)c(O)cc3CCN2CCO)cc(OC)c1OC (stereo unspecified)', 4.15);

For record COc1cc(CC2c3cc4c(cc3CCN2CCCl)OS(=O)O4)cc(OC)c1OC (stereo unspecified) the listed pIC50 is 4.19

Briefly, pIC50 measured for COc1cc(C[C@@H]2NCCc3cc(O)c(O)cc32)cc(OC)c1OC : 4.71

// sample COc1cc(C[C@H]2NCCc3cc(O)c(O)cc32)cc(OC)c1OC , its pIC50 was 6.15

So, COc1cc(CC2c3cc(O)c(O)cc3CCN2CCCl)cc(OC)c1OC (stereo unspecified) ? Its pIC50 was 4.06

// sample COc1cc(CC2c3cc(O)c(O)cc3CCN2Cc2ccccc2)cc(OC)c1OC (stereo unspecified) , its pIC50 was 4.67
